Target: Voltage-gated potassium channel subunit beta-2 (Rattus norvegicus) (UniProt P62483)
Sequence (P62483 whole entry, looked up): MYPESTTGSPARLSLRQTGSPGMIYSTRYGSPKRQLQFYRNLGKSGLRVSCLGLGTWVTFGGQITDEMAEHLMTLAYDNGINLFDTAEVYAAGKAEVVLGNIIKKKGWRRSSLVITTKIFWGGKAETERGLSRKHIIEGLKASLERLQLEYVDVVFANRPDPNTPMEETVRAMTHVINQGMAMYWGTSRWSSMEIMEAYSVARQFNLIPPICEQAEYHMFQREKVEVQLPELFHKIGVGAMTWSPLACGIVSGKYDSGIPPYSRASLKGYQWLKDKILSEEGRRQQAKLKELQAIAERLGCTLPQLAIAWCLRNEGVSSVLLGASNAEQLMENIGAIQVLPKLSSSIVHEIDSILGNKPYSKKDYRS
Test: KvBeta enzyme negative modulators, primary screen, biochemical, NADPH fluorescence (AID 622);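 note: slope of raw intensity against log time taken from 70 to 1610 s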
Settings: recombinant KvBeta, 4-cyanobenzaldehyde reduction, at 10 µM, stronger effect = higher value
measurement_label: fluorescence slope
Give bare numbers.

> print(dat)
                                  smi   measurement.label  result.number
1        CN1CCN(CCCCC(=O)c2ccccc2)CC1  fluorescence slope         -0.397
2  CN1c2ccccc2N(C)C1c1c(O)ccc2ccccc12  fluorescence slope         -0.407

Okay, next one:
Problem: Fill blank: measured fluorescence slope of the compound CCCCCSc1nc(O)cc(=O)[nH]1 is ____.
Result: -0.395

----------
Test: inhibitors of TNFa-induced NFkB p65 translocation, primary screen, imaging, HUVEC, MLSMR starter and 10KST1 sets (AID 438);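 note: compound added about 3h40 before a 20 min TNFalpha stimulation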
Conditions: HUVEC TNFa-induced p65 nuclear translocation; measured here: nuclei count (cytotoxicity indicator), at 2.08 µM
measurement_label: cell count
One number for each entry.

# example entries with known answers
> print(dat)
                                    molecule  measurement.label  result.number
 1  CCOC(=O)C1/C(=N\O)CC(C)(O)C(C(=O)OCC)C1c1ccc(N(C)C)cc1 (centres undefined)         cell count            497
 2  CCOC(=O)CSC1=C(C#N)C(c2ccc(OC)cc2)C2=C(CC(C)(C)CC2=O)N1 (centres undefined)         cell count            362
 3  CCOC(=O)CSC1=C(C#N)C(=O)NC(c2ccc(OC)c(OC)c2)S1 (centres undefined)         cell count            561
 4  Cc1c(C(Nc2ccccn2)c2ccccc2)c(=O)n(-c2ccccc2)n1C (centres undefined)         cell count            522
 5  CCOC(=O)CC(C#N)c1cn(C)c2ccccc12 (centres undefined)         cell count            657
 6  Cc1nc2ccccn2c(=O)c1CCN1CCC(C(=O)c2ccc(F)cc2)CC1         cell count            712
 7        O=C(Oc1ccccc1N1C(=O)CCC1=O)c1ccco1         cell count            545
 8  CCCCN1C[C@H](O)[C@@H](O)[C@H](O)[C@H]1CO         cell count            594
 9  COC(=O)c1ccc(OC(=O)c2ccc(OC)c(OC)c2)c(OC)c1         cell count            601
10  CC(C)CC(C(=O)O)C(C)CC(=O)Nc1ccn(-c2ccccc2)n1 (centres undefined)         cell count            345

Please look at the items below and tell me cell count for each one, in order.
1. Cc1ccc(C2CC(C(F)(F)F)n3ncc(C(N)=O)c3N2)cc1 (centres undefined)
2. COc1ccc(/C(O)=C2/C(=O)C(=O)N(c3ncccn3)C2c2ccc(OC)c(OC)c2)cc1 (centres undefined)
3. Cc1cc(C)nc(NC(=O)c2ccc(OC(C)C)cc2)n1
4. Nc1nnc(-c2cccc(Cl)c2Cl)c(N)n1
5. CC(C)(C)C1=Nn2c(nnc2-c2ccccn2)SC1
6. CC(=O)Oc1ccccc1C1OCCN1C(C)=O (centres undefined)

Result:
506
584
520
697
537
619

Please look at the items below and tell me cell count for each one, in order.
1. CC(C)CC(=O)Nc1ccccc1N1CCCC1
2. COc1cc(C2NC(=O)NC(C)=C2C(=O)Nc2cccc(C)c2C)cc(OC)c1OC (centres undefined)
3. CCOC(=O)c1[nH]c2cc3c(cc2c1NC(=O)CN1CCC(C)CC1)OCO3

Result:
[269, 566, 554]
